- procedure details: growth of efflux-deficient E. coli DRC39 – strain DRC39, OD650, 24 h, E. coli filamentation inducers, primary screen (AID 1178);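 further: growth measured as culture turbidity by optical density at 650 nm; test concentration not given here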
- assay context: E. coli DRC39 acrAB, higher = more signal, called active from +8 up or from −8 down
z-score of 0.9 or higher: True. Under 0.9: False.

Below are worked cases with known answers.
[
  {
    "compound": "CCCN1C(=O)[C@]2(Cc3ccccc31)N=C(c1ccc(OCCCO)cc1)O[C@@H]2c1ccccc1",
    "class": "True"
  },
  {
    "compound": "C=CCNC(=O)[C@@H]1[C@H]2C(=O)O[C@H](c3ccccc3)[C@H](c3ccccc3)N2[C@H](c2ccc(O)cc2)[C@@]12C(=O)N(C(=O)OCCOC)c1ccc(C#CC3=CCCCC3)cc12",
    "class": "False"
  },
  {
    "compound": "[N-]=[N+]=Nc1ccccc1C[C@]1(C(=O)NCCN2CCOCC2)COC(c2ccc(OCCCO)cc2)=N1",
    "class": "True"
  },
  {
    "compound": "CCOC(=O)C[C@H]1[C@H](OC(=O)c2ccc(C(=O)c3ccccc3)cc2)[C@@H](NC(=O)c2ccc(-c3ccccc3)cc2)c2cc(OCCCO)ccc2N1C(=O)Cc1ccc(OC)cc1",
    "class": "False"
  },
  {
    "compound": "COc1cc2c(cc1O)C(C1CC1)N(C)CC2 (configuration not stated)",
    "class": "False"
  }
]

Quick check, z-score >= 0.9? CO[C@H]1O[C@H](CO)[C@@H](OC(=O)CCc2ccccc2)[C@@H]2OC(=O)[C@@H](Cc3ccccc3)C/C=C/C[C@H](Cc3ccccc3)C(=O)O[C@@H]12
True

Quick check, z-score >= 0.9? CC1CC/C=C\[C@H]2OC34C=CCN(Cc5ccccc5)C(=O)[C@H]3N(C(CO)C(C)C)C(=O)[C@@H]4C2C(=O)O1 (some centres not stated)
False
